Below is a list of entries, each paired with its recorded self-cleavage value.
B1: HDV Ribozyme (parent)
chain: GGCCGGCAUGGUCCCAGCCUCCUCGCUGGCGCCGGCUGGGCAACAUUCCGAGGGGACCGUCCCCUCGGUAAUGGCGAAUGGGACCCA

# Variants of: B1
# assay-name: self-cleavage, relative activity (ratio to wild type); higher = more cleavage; co-transcriptional

- mutant-designation: "U37A C48U"
  self-cleavage: 0.237
- mutant-designation: "C13U A16G"
  self-cleavage: 0.978
- mutant-designation: "C33A A78G"
  self-cleavage: 0.161
- mutant-designation: "C44A U79C"
  self-cleavage: 0.122
- mutant-designation: "C4A U23A"
  self-cleavage: 0.309
- mutant-designation: "A56U G76A"
  self-cleavage: 0.939
- mutant-designation: "C3U G50A"
  self-cleavage: 0.682
- mutant-designation: "C14U C63A"
  self-cleavage: 0.957
- mutant-designation: "A70C A83G"
  self-cleavage: 0.543
- mutant-designation: "G67U U79C"
  self-cleavage: 0.231
- mutant-designation: "G2A G29U"
  self-cleavage: 0.0205
- mutant-designation: "U9G G38U"
  self-cleavage: 0
- mutant-designation: "C18A C48A"
  self-cleavage: 0.0369
- mutant-designation: "G34A G68U"
  self-cleavage: 0.171
- mutant-designation: "U47C G52A"
  self-cleavage: 0.853
